Entries annotated with measured pEC50
Target: hMCR-1 (Homo sapiens)
Construct: endogenous in cells; host or cells: HBL human melanoma cell line
Test: Assay for agonist activity: cAMP accumulation in HBL human melanoma cells
Assay type: cell-based
Details: read-out: MC-1 EC50 (average; cAMP HBL)
Where a SMILES comes first, the peptide text is derived from it. [ ]: non-standard residue; d: D form. Nle = CCCC[C@H](N)C(=O)O
Just the number, please; pEC50 means minus log10 of the concentration in mol/L.

input: GET /values?readout=pEC50&item= CCCC[C@H](NC(C)=O)C(=O)N[C@@H](Cc1c[nH]cn1)C(=O)N[C@H](Cc1ccccc1)C(=O)N[C@@H](CCCNC(=N)N)C(=O)N[C@@H](C)C(=O)N[C@@H](Cc1c[nH]c2ccccc12)C(N)=O [Example 9.3, Ac-Nle-His-D-Phe-Arg-Ala-Trp-NH2] (Ac-[Nle]H[dF]RAW-NH2)
output: 9.00

* * *

Entries annotated with measured pKi
Target: hMCR-1a (Homo sapiens)
Assay: Competitive inhibition binding assay using [I125]-NDP-α-MSH, hMCR-1a membranes
Conditions: HEK-293 membranes, recombinant human MCR-1, [I125]-NDP-α-MSH; read-out: MC-1 Ki (average)
Where a SMILES comes first, the peptide text is derived from it. [ ]: non-standard residue; d: D form. Nle = CCCC[C@H](N)C(=O)O; Orn = NCCC[C@H](N)C(=O)O
Just the number, please; pKi means minus log10 of the concentration in mol/L.

INSERT INTO measurements (molecule, endpoint_name, result) VALUES
  ('CCCC[C@H](NC(C)=O)C(=O)N[C@@H](C)C(=O)N[C@@H](CCCCN)C(=O)N[C@H](Cc1ccccc1)C(=O)N[C@@H](CCCNC(=N)N)C(=O)N[C@@H](C)C(=O)N[C@@H](Cc1c[nH]c2ccccc12)C(N)=O [Example 9.20, Ac-Nle-Ala-Lys-D-Phe-Arg-Ala-Trp-NH2] (Ac-[Nle]AK[dF]RAW-NH2)', 'pKi', 8.40);

input: GET /values?readout=pKi&item= CCCC[C@H](NC(C)=O)C(=O)N[C@@H](C)C(=O)N[C@@H](Cc1c[nH]cn1)C(=O)N[C@H](Cc1ccccc1)C(=O)N[C@@H](CCCNC(=N)N)C(=O)N[C@@H](C)C(=O)N[C@H](Cc1c[nH]c2ccccc12)C(N)=O [Example 9.9, Ac-Nle-Ala-His-D-Phe-Arg-Ala-D-Trp-NH2] (Ac-[Nle]AH[dF]RA[dW]-NH2)
output: 8.15

input: And CCCC[C@H](NC(C)=O)C(=O)N[C@@H](C)C(=O)N[C@@H](CCCN)C(=O)N[C@H](Cc1ccccc1)C(=O)N[C@@H](CCCNC(=N)N)C(=O)N[C@@H](C)C(=O)N[C@@H](Cc1c[nH]c2ccccc12)C(N)=O [Example 9.21, Ac-Nle-Ala-Orn-D-Phe-Arg-Ala-Trp-NH2] (Ac-[Nle]A[Orn][dF]RAW-NH2) ?
output: 9.52

* * *

Molecular target: hMCR-4 (Homo sapiens, UniProt P32245)
Sequence (P32245 whole entry): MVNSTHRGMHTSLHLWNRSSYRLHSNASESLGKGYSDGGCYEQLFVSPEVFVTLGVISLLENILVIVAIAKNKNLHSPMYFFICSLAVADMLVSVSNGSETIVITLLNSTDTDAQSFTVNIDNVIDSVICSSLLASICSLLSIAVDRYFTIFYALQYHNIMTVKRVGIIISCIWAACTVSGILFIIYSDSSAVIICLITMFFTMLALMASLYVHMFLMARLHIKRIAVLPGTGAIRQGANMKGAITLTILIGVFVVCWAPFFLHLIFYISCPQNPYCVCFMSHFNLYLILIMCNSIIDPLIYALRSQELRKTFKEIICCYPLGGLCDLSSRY
Test: Competitive inhibition binding assay using [I125]-NDP-α-MSH, hMCR-4 membranes
Settings: HEK-293 membranes, recombinant human MCR-4, [I125]-NDP-α-MSH; read-out: MC-4 Ki (average)
Where a SMILES comes first, the peptide text is derived from it. [ ]: non-standard residue; d: D form. Nle = CCCC[C@H](N)C(=O)O; Orn = NCCC[C@H](N)C(=O)O
ENDPOINT NAME: Ki (µM)
The reply should be a number in µM, with the unit left off.

Check out these entries, answers already filled in.
INSERT INTO results (molecule, result) VALUES
  ('CCCC[C@H](NC(C)=O)C(=O)N[C@@H](C)C(=O)N[C@@H](CCCN)C(=O)N[C@H](Cc1ccccc1)C(=O)N[C@@H](CCCNC(=N)N)C(=O)N[C@@H](C)C(=O)N[C@@H](Cc1c[nH]c2ccccc12)C(N)=O [Example 9.21, Ac-Nle-Ala-Orn-D-Phe-Arg-Ala-Trp-NH2] (Ac-[Nle]A[Orn][dF]RAW-NH2)', 7.58),
  ('CCCC[C@H](NC(C)=O)C(=O)N[C@H](Cc1ccccc1)C(=O)N[C@@H](CCCNC(=N)N)C(=O)N[C@@H](C)C(=O)N[C@@H](Cc1c[nH]c2ccccc12)C(N)=O [Example 9.15, Ac-Nle-D-Phe-Arg-Ala-Trp-NH2] (Ac-[Nle][dF]RAW-NH2)', 7.12);

Continue with the molecule presented below.
input: GET /values?readout=Ki&item= CCCC[C@H](NC(C)=O)C(=O)N[C@@H](C)C(=O)N[C@@H](Cc1c[nH]cn1)C(=O)N[C@H](Cc1ccccc1)C(=O)N[C@@H](CCCNC(=N)N)C(=O)N[C@@H](C)C(=O)N[C@H](Cc1c[nH]c2ccccc12)C(N)=O [Example 9.9, Ac-Nle-Ala-His-D-Phe-Arg-Ala-D-Trp-NH2] (Ac-[Nle]AH[dF]RA[dW]-NH2)
output: 0.215

* * *

Target: hMCR-1 (Homo sapiens)
Construct: endogenous in cells; host or cells: HBL human melanoma cell line
Experiment: Assay for agonist activity: cAMP accumulation in HBL human melanoma cells
Type: cell-based
Conditions: compared to reference agonist NDP-α-MSH, read-out: MC-1 Emax (average; cAMP HBL)
Excerpt: Accumulation of intracellular cAMP was examined as a measure of the ability of the peptides of the present invention to elicit a functional response in a human melanoma cell line, HBL, that express hMCR-1 (see Kang, L., et al., “A selective small molecule agonist of melanocortin-1 receptor inhibits lipopolysaccharide-induced cytokine accumulation and leukocyte infiltration in mice,” J. Leuk. Biol. 80:897-904 (2006)) or HEK-293 cells that express hMCR-4. […]
Where a SMILES comes first, the peptide text is derived from it. [ ]: non-standard residue; d: D form. Nle = CCCC[C@H](N)C(=O)O
Rule for this label: 1.0 means Emax is less than 90%; 0.0 means Emax is at least 90%.

INSERT INTO measurements (molecule, assigned_category) VALUES
  ('CCCC[C@H](NC(C)=O)C(=O)N[C@@H](Cc1c[nH]cn1)C(=O)N[C@@H](Cc1ccccc1)C(=O)N[C@@H](CCCNC(=N)N)C(=O)N[C@@H](C)C(=O)N[C@@H](Cc1c[nH]c2ccccc12)C(N)=O [Example 9.8, Ac-Nle-His-Phe-Arg-Ala-Trp-NH2] (Ac-[Nle]HFRAW-NH2)', 1.0),
  ('CCCC[C@H](NC(C)=O)C(=O)N[C@@H](C)C(=O)N[C@@H](Cc1c[nH]cn1)C(=O)N[C@@H](Cc1ccccc1)C(=O)N[C@@H](CCCNC(=N)N)C(=O)N[C@@H](C)C(=O)N[C@@H](Cc1c[nH]c2ccccc12)C(N)=O [Example 9.6, Ac-Nle-Ala-His-Phe-Arg-Ala-Trp-NH2] (Ac-[Nle]AHFRAW-NH2)', 1.0);

input: Dear reviewer, please state whether CCCC[C@H](NC(C)=O)C(=O)N[C@@H](C)C(=O)N[C@@H](CCCCN)C(=O)N[C@H](Cc1ccccc1)C(=O)N[C@@H](CCCNC(=N)N)C(=O)N[C@@H](C)C(=O)N[C@@H](Cc1c[nH]c2ccccc12)C(N)=O [Example 9.20, Ac-Nle-Ala-Lys-D-Phe-Arg-Ala-Trp-NH2] (Ac-[Nle]AK[dF]RAW-NH2) has Emax strictly beneath 90%.
output: 0.0

input: And CCCC[C@H](NC(C)=O)C(=O)N[C@@H](C)C(=O)N[C@H](Cc1ccccc1)C(=O)N[C@@H](CCCNC(=N)N)C(=O)N[C@@H](C)C(=O)N[C@@H](Cc1c[nH]c2ccccc12)C(N)=O [Example 9.10, Ac-Nle-Ala-D-Phe-Arg-Ala-Trp-NH2] (Ac-[Nle]A[dF]RAW-NH2) ?
output: 1.0

input: And CCCC[C@H](NC(C)=O)C(=O)N[C@@H](C)C(=O)N[C@@H](Cc1c[nH]cn1)C(=O)N[C@H](Cc1ccccc1)C(=O)N[C@@H](CCCNC(=N)N)C(=O)N[C@@H](C)C(=O)N[C@H](Cc1c[nH]c2ccccc12)C(N)=O [Example 9.9, Ac-Nle-Ala-His-D-Phe-Arg-Ala-D-Trp-NH2] (Ac-[Nle]AH[dF]RA[dW]-NH2) ?
output: 1.0

* * *

Target: hMCR-1a (Homo sapiens, UniProt Q01726)
Sequence (Q01726 whole entry): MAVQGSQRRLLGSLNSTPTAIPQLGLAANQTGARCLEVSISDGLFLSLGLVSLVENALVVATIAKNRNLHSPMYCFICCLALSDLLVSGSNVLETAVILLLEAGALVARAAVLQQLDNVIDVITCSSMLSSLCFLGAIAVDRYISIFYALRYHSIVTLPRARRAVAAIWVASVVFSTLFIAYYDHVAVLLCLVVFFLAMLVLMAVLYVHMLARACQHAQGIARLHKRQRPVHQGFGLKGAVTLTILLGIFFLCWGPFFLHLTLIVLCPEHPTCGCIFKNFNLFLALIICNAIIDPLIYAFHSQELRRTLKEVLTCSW
Test: Competitive inhibition binding assay using [I125]-NDP-α-MSH, hMCR-1a membranes
Details: HEK-293 membranes, recombinant human MCR-1, [I125]-NDP-α-MSH; read-out: MC-1 Ki (average)
Where a SMILES comes first, the peptide text is derived from it. [ ]: non-standard residue; d: D form. Nle = CCCC[C@H](N)C(=O)O; Sar = CNCC(=O)O
Entries annotated with measured pKi
Just the number, please; pKi means minus log10 of the concentration in mol/L.

INSERT INTO results (molecule, endpoint_name, result) VALUES
  ('CCCC[C@H](NC(C)=O)C(=O)N[C@@H](C)C(=O)N[C@@H](Cc1c[nH]cn1)C(=O)N[C@H](Cc1ccccc1)C(=O)N[C@@H](CCCNC(=N)N)C(=O)N(C)CC(=O)N[C@@H](Cc1c[nH]c2ccccc12)C(N)=O [Example 9.4, Ac-Nle-Ala-His-D-Phe-Arg-Sar-Trp-NH2] (Ac-[Nle]AH[dF]R[Sar]W-NH2)', 'pKi', 8.70),
  ('CCCC[C@H](NC(C)=O)C(=O)N[C@@H](C)C(=O)N[C@@H](Cc1c[nH]cn1)C(=O)N[C@H](Cc1ccccc1)C(=O)N[C@@H](CCCNC(=N)N)C(=O)N1CCC[C@@H]1C(=O)N[C@H](Cc1c[nH]c2ccccc12)C(N)=O [Example 9.12, Ac-Nle-Ala-His-D-Phe-Arg-D-Pro-D-Trp-NH2] (Ac-[Nle]AH[dF]R[dP][dW]-NH2)', 'pKi', 7.70);

input: GET /values?readout=pKi&item= CCCC[C@H](NC(C)=O)C(=O)N[C@H](Cc1ccccc1)C(=O)N[C@@H](CCCNC(=N)N)C(=O)N[C@@H](C)C(=O)N[C@@H](Cc1c[nH]c2ccccc12)C(N)=O [Example 9.15, Ac-Nle-D-Phe-Arg-Ala-Trp-NH2] (Ac-[Nle][dF]RAW-NH2)
output: 5.89
